assay: Pharmacokinetic profile in plasma; type: in vivo; conditions: mouse, iv, I. V., mice
The following molecules are shown together with reported clearance values.
Quote the value and follow it with the unit of measurement.

{"columns": ["Query Smiles", "clearance"],
 "data": [
  ["O=C(/C=C\\n1cnc(-c2cc(C(F)(F)F)cc(S(F)(F)(F)(F)F)c2)n1)NNc1ccccn1", "10 mL/min/kg"]
]}

Then there is this molecule:
# query: clearance of entry O=C(/C=C\n1cnc(-c2cc(C(F)(F)F)cc(S(F)(F)(F)(F)F)c2)n1)NNc1cnccn1
16 mL/min/kg

====

The following compounds are shown together with reported EC50 values.
target: XPO1 (Homo sapiens, UniProt O14980); test: REV-GFP translocation assay in U2OS cells; type: cell-based; design: endogenous in cells; host or cells: U2OS cells stably expressing REV-GFP (clones from HD Biosciences); conditions: REV-EGFP U2OS cells; 1 h; Table 2; read-out: Rev-GFP/EC50
Sequence (O14980 whole entry): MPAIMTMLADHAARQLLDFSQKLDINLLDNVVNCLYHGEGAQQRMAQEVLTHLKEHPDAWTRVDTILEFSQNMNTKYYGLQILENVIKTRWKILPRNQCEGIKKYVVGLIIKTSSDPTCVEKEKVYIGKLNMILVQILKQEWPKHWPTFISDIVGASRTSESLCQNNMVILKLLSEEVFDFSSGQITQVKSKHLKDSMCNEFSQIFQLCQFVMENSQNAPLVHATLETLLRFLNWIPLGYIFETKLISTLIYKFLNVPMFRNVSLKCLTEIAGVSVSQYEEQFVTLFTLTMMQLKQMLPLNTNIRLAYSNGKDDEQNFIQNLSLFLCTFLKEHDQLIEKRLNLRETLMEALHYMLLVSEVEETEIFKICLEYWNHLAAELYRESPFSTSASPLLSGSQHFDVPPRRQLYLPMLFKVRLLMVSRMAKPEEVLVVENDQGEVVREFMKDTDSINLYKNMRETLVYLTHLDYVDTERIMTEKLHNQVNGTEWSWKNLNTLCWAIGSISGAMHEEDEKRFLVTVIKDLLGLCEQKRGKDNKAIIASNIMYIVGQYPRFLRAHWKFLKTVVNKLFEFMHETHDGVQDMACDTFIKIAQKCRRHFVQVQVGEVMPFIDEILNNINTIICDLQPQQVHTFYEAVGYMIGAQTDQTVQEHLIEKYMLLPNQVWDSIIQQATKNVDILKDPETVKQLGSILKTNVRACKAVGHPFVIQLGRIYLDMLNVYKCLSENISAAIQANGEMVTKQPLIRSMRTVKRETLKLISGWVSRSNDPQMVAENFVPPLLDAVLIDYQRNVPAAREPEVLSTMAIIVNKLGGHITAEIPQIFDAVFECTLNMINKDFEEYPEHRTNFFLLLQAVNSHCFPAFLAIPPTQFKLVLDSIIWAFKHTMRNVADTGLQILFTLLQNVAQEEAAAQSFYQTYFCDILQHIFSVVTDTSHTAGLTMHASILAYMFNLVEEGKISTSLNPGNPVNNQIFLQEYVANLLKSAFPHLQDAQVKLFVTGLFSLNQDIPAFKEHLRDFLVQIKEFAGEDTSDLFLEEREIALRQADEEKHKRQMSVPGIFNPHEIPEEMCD
Quote the value and follow it with the unit of measurement.

Completed entries (count: 4):
{"columns": ["Query Smiles", "EC50"],
 "data": [
  ["O=C(/C=C\\n1cnc(-c2cc(C(F)(F)F)cc(S(F)(F)(F)(F)F)c2)n1)NNc1nccs1", "0.0252 µM"],
  ["O=C(/C=C\\n1cnc(-c2cc(C(F)(F)F)cc(S(F)(F)(F)(F)F)c2)n1)NNc1cnccn1", "0.012 µM"],
  ["O=C(/C=C\\n1cnc(-c2cc(C(F)(F)F)cc(S(F)(F)(F)(F)F)c2)n1)NNc1ccccn1", "0.0285 µM"],
  ["NC(=O)/C(=C/n1cnc(-c2cc(C(F)(F)F)cc(S(F)(F)(F)(F)F)c2)n1)c1cncnc1", "0.0148 µM"]
]}

# query: EC50 of entry CC(C)(C)C(=O)NNC(=O)/C=C\n1cnc(-c2cc(C(F)(F)F)cc(S(F)(F)(F)(F)F)c2)n1
0.211 µM
